Consider the following compounds and their measured Dmax readings.
molecular target: SMARCA2 (Homo sapiens, UniProt P51531); assay: SMARCA2 Western blot degradation in MV4-11 cells; type: cell-based; design: SMARCA2/SMARCA4 protein degradation selectivity in MV4-11 cells; endogenous in cells; host or cells: MV4-11; conditions: MV4-11, MV4-11 cells, 24 h; read-out: SMARCA2 MSD MV411 degradation 24 h: average Dmax %
Sequence (P51531 whole entry): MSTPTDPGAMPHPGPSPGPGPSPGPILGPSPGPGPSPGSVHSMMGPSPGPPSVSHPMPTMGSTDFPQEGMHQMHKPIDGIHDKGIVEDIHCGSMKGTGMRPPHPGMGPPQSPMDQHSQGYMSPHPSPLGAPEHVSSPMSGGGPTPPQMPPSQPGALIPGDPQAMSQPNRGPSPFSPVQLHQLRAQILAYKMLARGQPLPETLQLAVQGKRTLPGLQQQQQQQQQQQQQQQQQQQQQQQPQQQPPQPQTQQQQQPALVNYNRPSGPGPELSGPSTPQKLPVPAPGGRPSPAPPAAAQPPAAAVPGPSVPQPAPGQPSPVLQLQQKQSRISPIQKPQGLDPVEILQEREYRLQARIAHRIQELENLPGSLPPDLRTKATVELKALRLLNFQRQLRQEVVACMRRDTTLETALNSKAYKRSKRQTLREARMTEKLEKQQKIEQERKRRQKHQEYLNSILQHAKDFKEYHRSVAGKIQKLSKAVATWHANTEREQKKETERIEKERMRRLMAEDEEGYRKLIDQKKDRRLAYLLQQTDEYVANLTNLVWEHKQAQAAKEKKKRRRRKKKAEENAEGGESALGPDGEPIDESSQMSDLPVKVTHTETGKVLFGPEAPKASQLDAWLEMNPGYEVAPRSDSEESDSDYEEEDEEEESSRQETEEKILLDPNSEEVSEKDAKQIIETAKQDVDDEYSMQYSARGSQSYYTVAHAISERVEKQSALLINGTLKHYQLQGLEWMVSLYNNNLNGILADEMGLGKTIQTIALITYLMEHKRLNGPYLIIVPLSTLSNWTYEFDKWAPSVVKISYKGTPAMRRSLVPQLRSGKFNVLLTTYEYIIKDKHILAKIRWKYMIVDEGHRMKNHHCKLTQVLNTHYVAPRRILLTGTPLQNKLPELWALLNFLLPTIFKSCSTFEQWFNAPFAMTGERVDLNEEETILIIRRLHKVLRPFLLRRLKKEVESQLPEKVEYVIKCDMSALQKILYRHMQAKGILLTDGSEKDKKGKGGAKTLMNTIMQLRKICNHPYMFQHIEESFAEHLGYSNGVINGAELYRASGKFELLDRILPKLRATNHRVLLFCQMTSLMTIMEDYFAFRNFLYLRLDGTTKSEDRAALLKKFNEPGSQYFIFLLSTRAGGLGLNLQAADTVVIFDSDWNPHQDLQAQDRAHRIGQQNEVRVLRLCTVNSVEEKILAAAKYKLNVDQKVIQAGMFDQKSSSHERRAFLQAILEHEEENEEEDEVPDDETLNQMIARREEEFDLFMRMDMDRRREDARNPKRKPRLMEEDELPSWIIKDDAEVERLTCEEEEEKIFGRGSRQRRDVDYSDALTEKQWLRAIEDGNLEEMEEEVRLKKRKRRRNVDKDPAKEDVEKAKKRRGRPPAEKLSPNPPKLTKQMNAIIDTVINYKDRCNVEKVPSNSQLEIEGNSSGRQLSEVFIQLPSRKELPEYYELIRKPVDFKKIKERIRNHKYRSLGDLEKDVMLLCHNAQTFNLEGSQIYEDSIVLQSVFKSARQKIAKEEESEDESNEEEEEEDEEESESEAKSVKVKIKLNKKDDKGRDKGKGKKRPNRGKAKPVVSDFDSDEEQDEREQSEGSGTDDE

# count of solved cases: 3
- compound: "C#Cc1ccc([C@H](C)NC(=O)[C@@H]2C[C@@H](O)CN2C(=O)[C@@H](NC(=O)N2CC3(CC(N4CCC(c5cnc(N6CCc7[nH]c8nnc(-c9ccccc9O)cc8c7[C@H]6C)cn5)CC4)C3)C2)C(C)(C)C)cc1"
  Dmax: "> 90%"
- compound: "C#Cc1ccc(CNC(=O)[C@@H]2C[C@@H](O)CN2C(=O)[C@@H](NC(=O)c2ccc(N3CCC(N4CCC(N5CCN6c7cc(-c8ccccc8O)nnc7NC[C@H]6C5)CC4)CC3)cc2)C(C)(C)C)cc1"
  Dmax: "> 90%"
- compound: "C#Cc1ccc(CNC(=O)[C@@H]2C[C@@H](O)CN2C(=O)[C@@H](NC(=O)[C@H]2CCC3(CC2)C[C@H](N2CCN(c4cnc(N5CCN6c7cc(-c8ccccc8O)nnc7NC[C@H]6C5)nc4)CC2)C3)C(C)(C)CCO)cc1 (single isomer, unassigned)"
  Dmax: "70 to 90%"

Next, consider the following compound.
Please give measured Dmax of the following entry: C#Cc1ccc(CNC(=O)[C@@H]2C[C@@H](O)CN2C(=O)[C@@H](NC(=O)N2CC3(CC(N4CCC(c5cnc(N6CCc7[nH]c8nnc(-c9ccccc9O)cc8c7[C@@H]6C)s5)CC4)C3)C2)C(C)(C)C)cc1
50 to 70%
